So I've got a bunch of compounds here, and I need their GI50 values.
Tested on: SK-OV-3
Test: NCI tumour cell line growth inhibition, 48 h
The source made the active and inactive calls. Rule as the data show it: active = GI50 up to about 1.1 µM and inactive = higher.

Exercise: What value of measured GI50 is listed for `CCN(CC)C(=S)N/N=C(/C)c1cccc(/C(C)=N\NC(=S)N(CC)CC)n1` ?
Solution: 1.96 µM (inactive)

Exercise: What value of measured GI50 is listed for CCOC1(OCC)C2C=CC1C(COS(=O)(=O)c1ccc(C)cc1)C2COS(=O)(=O)c1ccc(C)cc1 (stereo not given) ?
Solution: 33.3 µM (inactive)

Exercise: What value of measured GI50 is listed for `O=C1NC2(CCN(CCCC3(c4ccc(F)cc4)OCCO3)CC2)Oc2ccccc21` ?
Solution: > 100 µM (inactive)

Exercise: What value of measured GI50 is listed for COC(=O)/C(=N/NC(C)(C)C)C(C(=O)C=C(C)C)C(=O)C(=O)Nc1ccc(Cl)cc1C (stereo not given) ?
Solution: > 100 µM (inactive)

Exercise: What value of measured GI50 is listed for `Brc1ccc(/N=N/N2CCCC2)cc1` ?
Solution: > 100 µM (inactive)

Exercise: What value of measured GI50 is listed for `Cc1c(/C=N\NC(=S)N2CCN(C(=S)N/N=C\c3c(C)n(C)n(-c4ccccc4)c3=O)CC2)c(=O)n(-c2ccccc2)n1C` ?
Solution: > 100 µM (inactive)

Exercise: What value of measured GI50 is listed for CCC(C(=O)c1cccs1)C(O)(C(F)(F)F)C(F)(F)F (stereo not given) ?
Solution: > 100 µM (inactive)

Exercise: What value of measured GI50 is listed for `c1ccc(CCn2cncn2)cc1` ?
Solution: > 100 µM (inactive)

Exercise: What value of measured GI50 is listed for `Cc1ccc2ccccc2c1CSc1nc(N)nc2c1ncn2CC(C)C` ?
Solution: 30.5 µM (inactive)

Exercise: What value of measured GI50 is listed for `CC1(C)C(=O)C(C)(C)C1=S` ?
Solution: > 100 µM (inactive)

Exercise: What value of measured GI50 is listed for CC(C)=CCC/C(C)=C/CCC1(C)C=Cc2c(c3ccccc3oc2=O)O1 (stereo not given) ?
Solution: 27.3 µM (inactive)

Exercise: What value of measured GI50 is listed for `CCOC(=O)C1=NN(c2ccc([N+](=O)[O-])cc2)[C@@]2(C)C[C@]3(c4ccccc4)N(c4ccc([N+](=O)[O-])cc4)N=C(C(=O)OCC)N3c3ccccc3N12` ?
Solution: > 100 µM (inactive)

Exercise: What value of measured GI50 is listed for CC1(C)OC2OC(COC(=O)c3ccc(C#N)cc3)C3OC(C)(C)OC3C2O1 (stereo not given) ?
Solution: > 75 µM (inactive)

Exercise: What value of measured GI50 is listed for `Cc1ccc(NC(=O)COc2ccc(Cl)cc2)cc1Cl` ?
Solution: 52.4 µM (inactive)

Exercise: What value of measured GI50 is listed for `CN(C)CCN1Nc2c3ccccc3nc3c(C(=O)NCCCN(C)CCCNC(=O)c4ccc5c6c(c7ccccc7nc46)NN5CCN(C)C)ccc1c23` ?
Solution: < 0.01 µM (active)

Exercise: What value of measured GI50 is listed for `CC1(C)N=C(N)N=C(N)N1c1ccc(OCC(=O)Nc2cccc(S(=O)(=O)F)c2)c(Cl)c1` ?
Solution: > 81.1 µM (inactive)

Exercise: What value of measured GI50 is listed for `CCN(CC)/[N+]([O-])=N/OC` ?
Solution: > 100 µM (inactive)

Exercise: What value of measured GI50 is listed for `N#CCCN(C(=O)Nc1ccccc1)[C@H]1CCCC[C@@H]1N(C(=O)Nc1ccccc1)c1ccccc1` ?
Solution: > 100 µM (inactive)

Exercise: What value of measured GI50 is listed for COC(=O)C(=O)C(C(=O)C(=O)Nc1cc([N+](=O)[O-])ccc1[N+](=O)[O-])c1nc2ccc(C(=O)c3ccccc3)cc2nc1O (stereo not given) ?
Solution: 34.2 µM (inactive)

Exercise: What value of measured GI50 is listed for COC(CCC[N+](C)(C)C)CC[N+](C)(C)C (stereo not given) ?
Solution: > 100 µM (inactive)
